Where do the numbers come from? From patent US20250250357A1.

- Target or system: T1, human MSLN-R3 protein (human, UniProt Q13421 487-598)
- T1 construct: also called hMSLN-R3
- T1 sequence (Q13421 495-606, form in doubt): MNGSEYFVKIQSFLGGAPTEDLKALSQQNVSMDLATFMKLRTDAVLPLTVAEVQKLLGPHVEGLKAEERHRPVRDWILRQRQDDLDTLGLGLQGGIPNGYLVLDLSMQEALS
- Protocol text: ELISA on coated antigen, antibody 0.1 nM
Quantity measured: OD450 (OD450)
Respond numerically; units are OD450 and should not be typed.

{"Binder": "F7.44.20-H16 (scFv, not shown: small tags and cut ends, also called S009-F7.44.20 humanized antibody VH2a + VL4) scFv: EVQLVQSGAEVKKPGASVKVSCKASGYTFTDYNMDWVRQAPGQGLEWMGDINPSTGGTIYNQKFSGRVTMTEDKSASTVYMELSSLRSEDTAVYYCARRRIGTGYFDVWGQGTTVTVSSGGGGSGGGGSGGGGSEIVLTQSPATLSLSPGERATLSCSASSSVISSYLSWYQQKPGSSPRLLIYRTSNLASGIPARFSGSGSGTDYTLTISSLEPEDFAVYYCHQWSSFPYTFGGGTKVEIK", "Observed measurement": 0.1}
{"Binder": "F7.44.20-H2 (scFv, not shown: small tags and cut ends, also called S009-F7.44.20 humanized antibody VH1 + VL2) scFv: EVQLVQSGAEVKKPGASVKVSCKASGYTFTDYNMDWVRQAPGQGLEWMGDINPSTGGTIYNQKFNGRVTMTEDKSTSTVYMELSSLRSEDTAVYYCARRRIGTGYFDVWGQGTTVTVSSGGGGSGGGGSGGGGSEIVLTQSPDFQSVTPKEKVTITCSASSSVISSYLSWYQQKPDQSPKLLIYRTSNLASGVPSRFSGSGSGTDYTLTINSLEAEDAATYYCHQWSSFPYTFGGGTKVEIK", "Observed measurement": 0.11}
{"Binder": "F7.44.20-VL-VH (scFv, not shown: small tags and cut ends, also called S009-F7.44.20 parental variable regions, VL-VH order) scFv: QIVLTQSPALMSASPGEKVTLTCSASSSVISSYLSWYQQKPGSSPKLLIYRTSNLASGVPARFSGSGSGTSYSLTISSMEAEDAASYFCHQWSSFPYTFGGGTKLEIKGGGGSGGGGSGGGGSEVQLQQSGPELVKPGASVKIPCKASGYTFTDYNMDWVKQSHGKSLEWIGDINPSTGGTIYNQKFNGKATLTEDKSASTVYMEFRSLTSDDTAVYYCARRRIGTGYFDVWGTGTTVTVSS", "Observed measurement": 0.08}
{"Binder": "F7.44.20-H3 (scFv, not shown: small tags and cut ends, also called S009-F7.44.20 humanized antibody VH1 + VL3) scFv: EVQLVQSGAEVKKPGASVKVSCKASGYTFTDYNMDWVRQAPGQGLEWMGDINPSTGGTIYNQKFNGRVTMTEDKSTSTVYMELSSLRSEDTAVYYCARRRIGTGYFDVWGQGTTVTVSSGGGGSGGGGSGGGGSEIVLTQSPATLSLSPGERATLSCSASSSVISSYLSWYQQKPGQSPRLLIYRTSNLASGIPARFSGSGSGTDYTLTISSLEPEDFAVYYCHQWSSFPYTFGGGTKVEIK", "Observed measurement": 0.1}

Turning now to a further binder:
# get_value(readout='OD450', item= F7.44.20-H7 (scFv, not shown: small tags and cut ends, also called S009-F7.44.20 humanized antibody VH1a + VL3) scFv: EVQLVQSGAEVKKPGASVKVSCKASGYTFTDYNMDWVRQAPGQGLEWMGDINPSTGGTIYNQKFQGRVTMTEDKSTSTVYMELSSLRSEDTAVYYCARRRIGTGYFDVWGQGTTVTVSSGGGGSGGGGSGGGGSEIVLTQSPATLSLSPGERATLSCSASSSVISSYLSWYQQKPGQSPRLLIYRTSNLASGIPARFSGSGSGTDYTLTISSLEPEDFAVYYCHQWSSFPYTFGGGTKVEIK )
0.16
